Experimental system: PfFNT (Plasmodium falciparum, UniProt O77389)
Sequence (O77389 whole entry): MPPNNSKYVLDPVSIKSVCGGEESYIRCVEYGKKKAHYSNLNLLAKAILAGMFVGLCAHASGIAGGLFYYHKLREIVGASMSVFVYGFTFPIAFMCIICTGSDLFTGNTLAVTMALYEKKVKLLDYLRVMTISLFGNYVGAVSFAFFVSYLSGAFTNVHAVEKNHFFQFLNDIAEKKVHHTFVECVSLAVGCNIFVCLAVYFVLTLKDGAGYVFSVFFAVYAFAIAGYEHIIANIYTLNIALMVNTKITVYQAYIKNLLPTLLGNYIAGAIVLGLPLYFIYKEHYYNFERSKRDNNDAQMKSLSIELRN
Assay info: cell-based
Experimental conditions: IC50 (PfFNT / yeast), 20 min incubation with compound; 1 mM L-lactate
pIC50: −log10 of the molar value.
Measured endpoint: pIC50

- Molecule: "COc1ccc2c(=O)cc(C(F)(F)C(F)(F)F)oc2c1 [[1]]"
  Val: "< 3.00"
- Molecule: "COc1ccc2c(c1)OC(C)(C)CC2=O [[2]]"
  Val: "< 3.00"
- Molecule: "COc1ccc2c(c1)C(=O)CC(O)(C(F)F)O2 (stereo not drawn) [[4]]"
  Val: "< 3.00"
